Tested on: Saccharomyces cerevisiae;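 further: PSI is a weighted mean of sequencing reads over stability bins, variants kept only with over 10 reads, mCherry proximal and sfGFP distal, peptide attached via GGGS linker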
Experiment: protein stability index of tFT-peptide fusion (C-terminal peptide) (PSI (0-1 scale)); higher = more stable (slower turnover)
Details: genetic background: cdc34-1; temperature: 37 C
ASSAY READOUT: protein stability index
One number for each entry.

Worked examples follow.
PSCLLVAPRFSS	0.672
HSPPVPFPPPTS	0.647
VWFFLLSFANRL	0.477
KIVNNTKKNKCH	0.638
FYSLVQAWSKAP	0.721

# batch size: 4; output protein stability index per entry
1. QRFASFFFLHLS
2. FFALYGHILGLF
3. DCLSFVLFLFLC
4. RRAVGLANFTIK

[0.411, 0.702, 0.203, 0.705]

# batch size: 7; output protein stability index per entry
1. FGKGRSLLLVFS
2. FWSARAVVWWCW
3. PLRLRCASLFAN
4. VFCSVGVSLFFG
5. KEKGVTKIRISS
6. FHRSVVRLWLRN
7. KLLGVLFVLFPG

[0.548, 0.506, 0.62, 0.335, 0.617, 0.49, 0.486]

# batch size: 5; output protein stability index per entry
1. PLVLPPINLFLV
2. RVWIVCYHVSSY
3. LPPSTFLLHFLL
4. FLSLSFLLLHFP
5. PRINTFVVVRVC

1: 0.575; 2: 0.214; 3: 0.667; 4: 0.398; 5: 0.102

# batch size: 6; output protein stability index per entry
1. LVCLPVGFFLMW
2. DVHPLFYCIPVY
3. FNMLFVVRLLYM
4. SFTVFVVLLFPP
5. SCLSLALLVFFG
6. GGVWSAFAVWVC

[0.565, 0.0345, 0.37, 0.311, 0.442, 0.188]

# batch size: 3; output protein stability index per entry
1. VIWIRMISFFVW
2. RLSGACILLSLV
3. WFFTDIVMLVRV

1. 0.192
2. 0.634
3. 0.126
